src = ChEMBL document CHEMBL3817781

- System tested: Pantothenate synthetase (Mycobacterium tuberculosis)
- Sequence (P9WIL5 whole entry): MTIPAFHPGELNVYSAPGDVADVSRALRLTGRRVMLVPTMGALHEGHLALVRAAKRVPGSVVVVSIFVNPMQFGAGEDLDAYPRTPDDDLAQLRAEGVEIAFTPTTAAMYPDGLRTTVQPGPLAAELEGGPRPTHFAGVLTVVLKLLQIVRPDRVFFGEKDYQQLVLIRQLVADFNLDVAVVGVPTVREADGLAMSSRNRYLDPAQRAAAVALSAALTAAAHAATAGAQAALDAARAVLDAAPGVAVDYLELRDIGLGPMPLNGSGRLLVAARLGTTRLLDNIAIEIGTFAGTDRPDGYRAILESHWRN
Endpoint: IC50 (nM)
Give bare numbers, in nM.

Quick check: IC50 of COc1ccc2c(c1)cc(C(=O)NS(=O)(=O)Cc1ccc(C(F)(F)F)cc1)n2CC(=O)O ?
250
